- experiment: Real-time measurement of CCl4 in combined exhaled breath of rats after a single intravenous injection (TAGA tandem mass spectrometer)
- Assay type: in vivo, male Fischer 344 rat
- experimental-setup: rat, exhaled breath, iv; single i.v. injection, 0.6 mg/kg jugular vein or 1.5 mg/kg tail vein; consistent with calculated sample-introduction delay (28.5 seconds); read-out: peak concentration of CCl4 in exhaled breath occurred in (time from the end of the injection) (converted)
- Method: Male, Fischer 344 rats, weighing 225-275 g, were purchased either with, or without, indwelling jugular vein cannulas from Charles River, Inc., Raleigh, N.C. […] Each animal received a single intravenous injection of CCl4 in isotonic saline, either through the Jugular vein cannula, or via the tail vein. […] The combined exhaled breath from the exposed animals was measured continuously to determine the concentration of CCl4 exhaled. […]

# compound, Tmax
measured = [
    ("ClC(Cl)(Cl)Cl [CCl4, carbon tetrachloride]", "~30 s"),
]
